- measured-on: guinea pig trachea (contractions caused by U46619) (Cavia porcellus, UniProt A0A286Y4I8)
- test-summary: pA2 on guinea pig trachea (U46619-induced contraction)
- Type: cell-based
- protocol-conditions: guinea pig tracheal rings; U46619 10^-9 M to 10^-5 M; antagonist contact 20 minutes
Counter-ions that a name gives are not always drawn.
readout: Kb

Respond only with Kb recorded for O=C(O)CC/C=C\CC1(CCNS(=O)(=O)c2ccc(Cl)cc2)CCCC1 [Example 3, sodium salt] 501 pM

Give the measured Kb for O=C(O)CCC/C=C\CC1(CNS(=O)(=O)c2ccc(Cl)cc2)CCCC1 [Example 8, sodium salt] 234 pM

In one line, give reported Kb of the entry O=C(O)CC/C=C\CCC1(CNS(=O)(=O)c2ccc(Cl)cc2)CCCC1 [Example 9, sodium salt] . 832 pM

Give me measured Kb, please, for this compound: O=C(O)CC/C=C\CC1(CNS(=O)(=O)c2ccc(Cl)cc2)CCCCC1 [Example 7, sodium salt] 398 pM

Find the measured Kb of O=C(O)CCC/C=C\CCC1(NS(=O)(=O)c2ccc(Cl)cc2)CCCC1 [Example 11, sodium salt] and report it. 20000 pM

State, in one line, measured Kb of O=C(O)CC/C=C\CC1(CNS(=O)(=O)c2ccc(Cl)cc2)CCCC1 [Example 6, sodium salt] 724 pM

Read the entry Cc1ccc(S(=O)(=O)NCCC2(C/C=C\CCCC(=O)O)CCCCC2)cc1 [Example 4, sodium salt] and write its reported Kb. 3160 pM

Annotate the compound O=C(O)CCC/C=C\CC1(CCNS(=O)(=O)c2ccc(Cl)cc2)CCCC1 [Example 12, sodium salt] with its measured Kb. 1050 pM

###

- measured-on: guinea pig trachea (contractions caused by U46619) (Cavia porcellus)
- Sequence (A0A286Y4I8 1-347): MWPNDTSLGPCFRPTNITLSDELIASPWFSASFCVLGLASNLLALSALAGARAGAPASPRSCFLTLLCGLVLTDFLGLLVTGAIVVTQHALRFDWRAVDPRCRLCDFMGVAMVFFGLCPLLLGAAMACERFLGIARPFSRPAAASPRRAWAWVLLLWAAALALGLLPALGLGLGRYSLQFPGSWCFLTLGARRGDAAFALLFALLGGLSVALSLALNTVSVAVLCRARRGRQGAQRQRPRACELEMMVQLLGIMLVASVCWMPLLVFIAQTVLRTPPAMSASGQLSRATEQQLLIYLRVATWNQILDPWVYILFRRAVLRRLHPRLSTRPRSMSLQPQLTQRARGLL
- test-summary: pA2 on guinea pig trachea (U46619-induced contraction)
- Type: cell-based
- protocol-conditions: guinea pig tracheal rings; U46619 10^-9 M to 10^-5 M; antagonist contact 20 minutes
Where a name gives a salt, the structure may show the parent alone.
readout: Kb (nM)
Only the number, expressed in nM, is required.

Read off the recorded Kb for O=C(O)CCC/C=C\CC1(CCNS(=O)(=O)c2ccc(Br)cc2)CCCCC1 [Example 5, sodium salt] 6.31

Supply measured Kb of O=C(O)CC/C=C\CC1(CCNS(=O)(=O)c2ccc(Cl)cc2)CCc2ccccc21 (centres unmarked) [sodium salt] in your reply. 3.98

Read off the recorded Kb for O=C(O)CCC/C=C\CC1(CCNS(=O)(=O)c2ccc(Cl)cc2)CCCCC1 [Example 1, sodium salt] 0.398

Hello, please tell me recorded Kb for this one: O=C(O)CC/C=C\CC1(CCNS(=O)(=O)c2ccc(Cl)cc2)CCCCC1 [Example 2, sodium salt] 3.98

# return recorded Kb for input O=C(O)CC/C=C\CCC1(NS(=O)(=O)c2ccc(Cl)cc2)CCCC1 [Example 10, sodium salt] 22.4

###

- Tested on: Dog platelets (aggregation induced by U46619+adrenaline)
- test-summary: Platelet aggregation in dogs (U46619 + adrenaline, PRP)
- Type: cell-based
- protocol-conditions: Canis lupus familiaris, adrenaline 10 μM then U46619 1.2 μM, 3 min preincubation, 37° C., read-out: IC50 (50% inhibition of the aggregation responses to U46619+adrenaline)
Structures can show the parent of a compound that is named as a salt.
readout: IC50 (nM)
Report as a plain number; the unit nM is understood.

Give a short answer stating reported IC50 for O=C(O)CCC/C=C\CC1(CCNS(=O)(=O)c2ccc(Cl)cc2)CCCC1 [Example 12, sodium salt] . 150

Name the recorded IC50 of the compound listed here: O=C(O)CCC/C=C\CC1(CCNS(=O)(=O)c2ccc(Br)cc2)CCCCC1 [Example 5, sodium salt] 140

Give IC50 for the following compound: O=C(O)CC/C=C\CC1(CCNS(=O)(=O)c2ccc(Cl)cc2)CCCCC1 [Example 2, sodium salt] 120

Quick one: give measured IC50 for O=C(O)CCC/C=C\CC1(CCNS(=O)(=O)c2ccc(Cl)cc2)CCCCC1 [Example 1, sodium salt] 140
